reported-endpoint: melting point

**Q:** Return value of melting point for input "Clc1ccc(-c2cc(-c3ccc(Cl)cc3)n3nc(-c4ccccc4)nc3n2)cc1" , no commentary.
**A:** 202 to 204 °C

**Q:** Indicate the recorded melting point value for this compound: "COc1ccc(-c2cc(-c3ccccc3)n3nc(-c4ccccc4)nc3n2)cc1"
**A:** 222 to 224 °C

**Q:** Provide melting point value for the following compound: "c1ccc(-c2cc(-c3ccccc3)n3nc(-c4ccccc4)nc3n2)cc1"
**A:** 210 to 212 °C

**Q:** Quick one: give measured melting point for "Clc1ccc(-c2cc(-c3ccccc3)n3nc(-c4ccccc4)nc3n2)cc1"
**A:** 260 to 262 °C

###

Kindly state Inhibition Zone (IZ) Diameter for each of the entries shown.
Tested on: A. flavus
assay-procedure: Modified disk diffusion, inhibition zone
condition-summary: A. flavus (fungi)
Hi! Could you send only the number? It should be in mm/mL, unit omitted.

**Q:** Supply reported Inhibition Zone (IZ) Diameter belonging to this compound: "COc1ccc(-c2cc(-c3ccc(C)cc3)n3nc(-c4ccccc4)nc3n2)cc1"
**A:** 35

**Q:** Entry "Clc1ccc(-c2cc(-c3ccccc3)nc3nc(-c4ccccc4)nn23)cc1" needs its Inhibition Zone (IZ) Diameter filled in; supply it.
**A:** 11

**Q:** // fetch Inhibition Zone (IZ) Diameter given entry "COc1ccc(-c2cc(-c3ccc(C)cc3)nc3nc(-c4ccccc4)nn23)cc1"
**A:** 15

**Q:** Supply measured Inhibition Zone (IZ) Diameter of "COc1ccc(-c2cc(-c3ccccc3)n3nc(-c4ccccc4)nc3n2)cc1" in your reply.
**A:** 20

**Q:** For the compound OC(Cn1cncn1)(Cn1cncn1)c1ccc(F)cc1F [Fluconazole, reference compound] , give its measured Inhibition Zone (IZ) Diameter value.
**A:** 40

**Q:** Using the record for "Clc1ccc(-c2cc(-c3ccc(Cl)cc3)n3nc(-c4ccccc4)nc3n2)cc1" , state its measured Inhibition Zone (IZ) Diameter.
**A:** 8

**Q:** Give the reported value of Inhibition Zone (IZ) Diameter for this record: "Cc1ccc(-c2cc(-c3ccc(Cl)cc3)nc3nc(-c4ccccc4)nn23)cc1"
**A:** 9.0

**Q:** Annotate the compound "Clc1ccc(-c2cc(-c3ccccc3)n3nc(-c4ccccc4)nc3n2)cc1" with its measured Inhibition Zone (IZ) Diameter.
**A:** 5

###

System: E. coli
assay-procedure: MIC assay, 2-fold serial dilution in 96-well microtiter plate
Format: cell-based, Escherichia coli (ATCC 11775)
condition-summary: Escherichia coli, read-out: MIC
Record form. Attribute: MIC. Fill in for each entry.
# value in µM; strip the unit string

**Q:** Supply recorded MIC for "COc1ccc(-c2cc(-c3ccc(C)cc3)n3nc(-c4ccccc4)nc3n2)cc1" here.
**A:** 0.051

**Q:** Please look at this compound and report its MIC: "COc1ccc(-c2cc(-c3ccc(Cl)cc3)n3nc(-c4ccccc4)nc3n2)cc1"
**A:** 0.065

**Q:** Tell us which MIC value is on record for "COc1ccc(-c2cc(-c3ccccc3)nc3nc(-c4ccccc4)nn23)cc1"
**A:** 0.073

**Q:** Entry "COc1ccc(-c2cc(-c3ccc(OC)cc3)n3nc(-c4ccccc4)nc3n2)cc1" needs its MIC filled in; supply it.
**A:** 0.069

**Q:** Return the recorded MIC value; entry: O=C(O)c1cn(C2CC2)c2cc(N3CCNCC3)c(F)cc2c1=O [Ciprofloxacin, reference compound]
**A:** 0.06
